- experimentalSystem: human recombinant HDAC6 (Homo sapiens, UniProt Q9UBN7)
- Construct: purchased Calbiochem 382180
- Sequence (Q9UBN7 whole entry): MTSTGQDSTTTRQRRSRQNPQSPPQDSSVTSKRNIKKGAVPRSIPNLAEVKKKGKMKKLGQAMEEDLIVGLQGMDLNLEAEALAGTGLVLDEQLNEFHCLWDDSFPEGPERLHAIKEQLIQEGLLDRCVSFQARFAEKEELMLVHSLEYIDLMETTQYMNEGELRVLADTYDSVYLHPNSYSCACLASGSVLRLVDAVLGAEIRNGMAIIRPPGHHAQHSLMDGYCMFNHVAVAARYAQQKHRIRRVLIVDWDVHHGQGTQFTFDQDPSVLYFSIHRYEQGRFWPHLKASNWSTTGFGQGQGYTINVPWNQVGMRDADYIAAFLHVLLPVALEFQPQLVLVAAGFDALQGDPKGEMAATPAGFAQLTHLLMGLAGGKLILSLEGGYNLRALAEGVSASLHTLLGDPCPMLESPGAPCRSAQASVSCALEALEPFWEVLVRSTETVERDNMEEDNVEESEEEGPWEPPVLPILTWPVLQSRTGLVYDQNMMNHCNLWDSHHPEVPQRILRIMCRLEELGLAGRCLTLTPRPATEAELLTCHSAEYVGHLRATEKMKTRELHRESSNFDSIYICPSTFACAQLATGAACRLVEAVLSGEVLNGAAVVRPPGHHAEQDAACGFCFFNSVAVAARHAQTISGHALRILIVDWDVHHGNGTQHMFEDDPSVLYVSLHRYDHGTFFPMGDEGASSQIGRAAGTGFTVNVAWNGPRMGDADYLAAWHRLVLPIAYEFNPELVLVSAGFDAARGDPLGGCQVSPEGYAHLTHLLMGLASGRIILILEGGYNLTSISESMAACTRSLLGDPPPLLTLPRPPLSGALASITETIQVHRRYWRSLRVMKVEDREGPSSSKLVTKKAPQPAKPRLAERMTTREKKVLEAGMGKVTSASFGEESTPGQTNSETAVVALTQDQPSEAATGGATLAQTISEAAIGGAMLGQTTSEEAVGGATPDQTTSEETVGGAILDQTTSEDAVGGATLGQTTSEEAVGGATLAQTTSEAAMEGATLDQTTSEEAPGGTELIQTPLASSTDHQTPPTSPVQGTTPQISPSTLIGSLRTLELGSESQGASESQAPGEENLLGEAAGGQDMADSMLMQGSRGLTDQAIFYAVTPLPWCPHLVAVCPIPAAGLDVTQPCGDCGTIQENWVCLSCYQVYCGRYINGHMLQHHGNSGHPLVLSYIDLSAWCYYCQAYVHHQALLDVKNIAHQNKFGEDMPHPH
- testMethodNotes: HDAC6 enzyme activity inhibition assay (HDAC Fluorimetric Drug Discovery Kit)
- Type: biochemical
- cond: human recombinant HDAC6, same protocol as HDAC1; read-out: HDAC6
pIC50: −log10 of the molar value.
Measured pIC50 values are reported for all entries that follow.
endpointLabel: pIC50

CC(C)COC(=O)N(Cc1ccc(-c2nnc(C(F)F)o2)cc1)c1ccccc1 ... 6.51
O=C(N1CCN(CCO)CC1)N(Cc1ccc(-c2nnc(C(F)(F)F)o2)cc1F)c1ccc(F)c(Cl)c1 ... 6.79
CCN1CCN(C(=O)N(Cc2ccc(-c3nnc(C(F)F)o3)cc2F)c2ccc(F)cc2)CC1 ... 7.34
Cc1cccc(N(Cc2ccc(-c3nnc(C(F)(F)F)o3)cc2F)C(=O)N2CCS(=O)(=O)CC2)c1 ... 7.15
CN(C)[C@H]1CCN(C(=O)N(Cc2ccc(-c3nnc(C(F)F)o3)cc2F)c2ccc(F)cc2Cl)C1 ... 7.21
CC(C)(C)CN1CCN(Cc2ccc(N(Cc3ccc(-c4nnc(C(F)F)o4)cc3F)C(=O)N3CCS(=O)(=O)CC3)cc2)CC1 ... 6.63
O=C(N1CCOCC1)N(Cc1ccc(-c2nnc(C(F)F)o2)cc1F)CC12CC3CC(CC(C3)C1)C2 ... 6.16
COc1ccc(N(Cc2ccc(-c3nnc(C(F)F)o3)cc2)C(=O)N2CCS(=O)(=O)CC2)cc1 ... 6.93
CC(C)c1nc2ccc(N(Cc3ccc(-c4nnc(C(F)F)o4)cc3F)C(=O)N3CCS(=O)(=O)CC3)cc2s1 ... 6.48
CC(C)(C)c1ccc(N(Cc2ccc(-c3nnc(C(F)F)o3)cc2F)C(=O)N2CCS(=O)(=O)CC2)cc1 ... 6.14
O=C(N1CCC2(CC1)CNC2)N(Cc1ccc(-c2nnc(C(F)F)o2)cc1F)c1ccccc1 ... 7.47
Cc1ccc(N(Cc2ccc(-c3nnc(C(F)(F)F)o3)cc2)C(=O)N2CCS(=O)(=O)CC2)c(F)c1 ... 6.73
O=C(N1CCS(=O)(=O)CC1)N(Cc1ccc(-c2nnc(C(F)(F)F)o2)cc1)c1cccc(C(F)(F)F)n1 ... 6.24
O=C(N1CCN(C2COC2)CC1)N(Cc1ccc(-c2nnc(C(F)F)o2)cc1F)c1ccc(Cl)cc1 ... 6.91
O=C(N1CC[C@H](F)C1)N(Cc1ccc(-c2nnc(C(F)F)o2)cc1F)c1ccc(F)c(Cl)c1 ... 7.68
